TESTED_SYSTEM: BRD9 (Homo sapiens, UniProt Q9H8M2)
Sequence (Q9H8M2 1-597): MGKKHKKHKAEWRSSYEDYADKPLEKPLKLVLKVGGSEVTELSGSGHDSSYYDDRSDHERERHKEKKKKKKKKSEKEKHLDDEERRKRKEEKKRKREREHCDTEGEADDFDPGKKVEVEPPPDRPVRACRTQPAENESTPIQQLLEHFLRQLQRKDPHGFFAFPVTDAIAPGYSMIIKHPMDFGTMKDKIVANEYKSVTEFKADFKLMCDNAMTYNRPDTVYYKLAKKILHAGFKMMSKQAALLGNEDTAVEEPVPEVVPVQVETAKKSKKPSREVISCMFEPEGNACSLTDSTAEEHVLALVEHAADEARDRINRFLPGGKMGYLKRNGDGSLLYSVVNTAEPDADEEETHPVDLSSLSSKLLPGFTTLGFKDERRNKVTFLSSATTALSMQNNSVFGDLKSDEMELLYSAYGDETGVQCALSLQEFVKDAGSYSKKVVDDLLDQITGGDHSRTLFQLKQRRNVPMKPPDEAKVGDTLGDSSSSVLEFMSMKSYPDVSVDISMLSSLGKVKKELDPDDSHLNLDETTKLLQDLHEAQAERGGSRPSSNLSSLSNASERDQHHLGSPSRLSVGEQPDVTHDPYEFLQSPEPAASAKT
PROTOCOL_DETAILS: BRD9 degradation, HiBiT-BRD9 KI HEK293 (LgBiT) cells, NanoGlo Lytic Endpoint assay (Assay Protocol 1)
Assay type: cell-based
CONDITION_SUMMARY: HEK293; Table 2; BRD9 degradation, Assay Protocol 1; 1 μM compound at 6 h of treatment; read-out: Assay 1 Dmax
MEASURED_PARAMETER: Dmax at 1 µM

[
  {
    "COMPOUND": "COc1cc(-c2cn(C)c(=O)c(C)c2C)cc(OC)c1CN1CCN(Cc2cccc3c2CCN(C(=O)/C(C#N)=C/c2ncc(C)s2)C3C)CC1 (mixture of isomers) [Compound A29]",
    "TESTED_SYSTEM": "BRD9 (Homo sapiens, UniProt Q9H8M2)",
    "Dmax at 1 µM": "40 to 70%"
  },
  {
    "COMPOUND": "COc1cc(-c2cn(C)c(=O)c3cnccc23)cc(OC)c1CN1CCN(Cc2cccc3c2CCN(C(=O)/C(C#N)=C\\c2nc(C)c(C)s2)C3C)CC1 (mixture of isomers) [Compound A13]",
    "TESTED_SYSTEM": "BRD9 (Homo sapiens, UniProt Q9H8M2)",
    "Dmax at 1 µM": "40 to 70%"
  }
]

I am curious: what Dmax at 1 µM value has been reported for COc1cc(-c2cn(C)c(=O)c3cnccc23)cc(OC)c1CN1CCN(Cc2cccc(C3CCCN3C(=O)/C(C#N)=C/c3nccs3)c2)CC1 (mixture of isomers) [Compound A33] ?
> 75%

I am curious: what Dmax at 1 µM value has been reported for COc1cc(-c2cn(C)c(=O)c(C)c2C)cc(OC)c1CN1CCN(C(=O)CCc2ccc3c(c2)C(C)N(C(=O)/C(C#N)=C/c2nccs2)CC3)CC1 (mixture of isomers) [Compound A55] ?
40 to 70%

I am curious: what Dmax at 1 µM value has been reported for COc1cc(-c2cn(C)c(=O)c3cnccc23)cc(OC)c1CN1CCN(Cc2cccc3c2CCN(C(=O)/C(C#N)=C\C2CCOCC2)C3C)CC1 (mixture of isomers) [Compound A17] ?
40 to 70%

---

TESTED_SYSTEM: UniProt Q9H8M2
PROTOCOL_DETAILS: Degradation of BRD9 (IF), immunofluorescence in MV4-11 cells, 24 hours (Assay Protocol 2)
Assay type: cell-based
Parameters: A suspension of MV4-11 cells (ATCC CRL-9591) was prepared; host or cells: MV4-11
CONDITION_SUMMARY: MV4-11, Assay protocol 2; BRD9 degradation; read-out: Dmax
MEASURED_PARAMETER: Dmax

[
  {
    "MOLECULE": "COc1cc(-c2cn(C)c(=O)c(C)c2C)cc(OC)c1CN1CCN(Cc2cccc3c2CCN(C(=O)/C(C#N)=C/c2ncc(C(F)(F)F)s2)C3C)CC1 (mixture of isomers)",
    "READOUT_VALUE": "40 to 70%"
  },
  {
    "MOLECULE": "COc1cc(-c2cn(C)c(=O)c(C)c2C)cc(OC)c1CN1CCN(Cc2cccc3c2CCN(C(=O)/C(C#N)=C/C(C)(C)CF)[C@@H]3C(C)C)CC12CC2 (single isomer, unassigned)",
    "READOUT_VALUE": "> 75%"
  }
]

Next molecule, please.
Recall the recorded Dmax for COc1cc(-c2cn(C)c(=O)c(C)c2C)cc(OC)c1CN1CCN(Cc2cccc3c2CCN(C(=O)/C(C#N)=C/C(C)(C)F)[C@@H]3C)C2(CC2)C1 (single isomer, unassigned) with UniProt Q9H8M2 and state it.
> 75%

---

TESTED_SYSTEM: BRD9 (Homo sapiens)
PROTOCOL_DETAILS: Degradation of BRD9 (IF), immunofluorescence in MV4-11 cells, 24 hours (Assay Protocol 2)
Assay type: cell-based
Parameters: A suspension of MV4-11 cells (ATCC CRL-9591) was prepared; host or cells: MV4-11
CONDITION_SUMMARY: Assay protocol 2; BRD9 degradation; read-out: DC50
Method: Assay Protocol 2—Degradation of BRD9 (IF) A suspension of MV4-11 cells (ATCC CRL-9591) was prepared in phenol red-free assay media (IMDM Thermo Scientific 21056023+10% FBS ATCC 302025) and cells were seeded at 20,000 cells per well (45 μL) in sterile black poly-d-lysine coated 384 well plates (Greiner 781948). Compounds were prepared at 1000× final concentration in DMSO, diluted 1:100 in assay media, and 5 μL compound was added to each well of the cell plate. […]
MEASURED_PARAMETER: DC50

[
  {
    "COMPOUND": "COc1cc(-c2cn(C)c(=O)c(C)c2C)cc(OC)c1CN(C)Cc1ccc2c(c1)[C@@H](C(C)C)N(C(=O)/C(C#N)=C/C(C)(C)C)CC2 (single isomer, unassigned)",
    "DC50": "10 to 25 nM"
  },
  {
    "COMPOUND": "COc1cc(-c2cn(C)c(=O)c(C)c2C)cc(OC)c1CN1CCN(Cc2cccc3c2CCN(C(=O)/C(C#N)=C/C(C)(C)C)[C@H]3C)C2(CC2)C1 (single isomer, unassigned)",
    "DC50": "< 1.25 nM"
  }
]

I am curious: what DC50 value has been reported for COc1cc(-c2cn(C)c(=O)c(C)c2C)cc(OC)c1CN1CCCN(c2ccc3c(c2)[C@H](C)N(C(=O)/C(C#N)=C/C(C)(C)CF)CC3)CC1 (mixture of isomers) ?
25 to 1000 nM

I am curious: what DC50 value has been reported for COc1cc(-c2cn(C)c(=O)c(C)c2C)cc(OC)c1CN1CCN(Cc2cccc3c2CCN(C(=O)/C(C#N)=C\C(C)(C)CF)C3C(C)C)[C@@H](C)C1 (single isomer, unassigned) ?
10 to 25 nM

I am curious: what DC50 value has been reported for CC[C@H]1CN(Cc2cccc3c2CCN(C(=O)/C(C#N)=C/C(C)(C)C)C3C)CCN1Cc1c(OC)cc(-c2cn(C)c(=O)c(C)c2C)cc1OC (mixture of isomers) ?
1.25 to 10 nM

---

Below, each entry is listed with its recorded DC50.
TESTED_SYSTEM: BRD9 (Homo sapiens, UniProt Q9H8M2)
PROTOCOL_DETAILS: Degradation of BRD9 (IF), immunofluorescence in MV4-11 cells, 24 hours (Assay Protocol 2)
Format: cell-based
Set-up: A suspension of MV4-11 cells (ATCC CRL-9591) was prepared; host or cells: MV4-11
CONDITION_SUMMARY: Assay protocol 2; BRD9 degradation; read-out: DC50

Known DC50 results, listed for orientation:
[
  {
    "COMPOUND": "COc1ccc(F)c(/C=C(\\C#N)C(=O)N2CCc3c(CN4CCN(Cc5c(OC)cc(-c6cn(C)c(=O)c(C)c6C)cc5OC)CC4)cccc3C2C)c1 (mixture of isomers) [Compound B93]",
    "DC50": "1.25 to 10 nM"
  },
  {
    "COMPOUND": "COc1cc(-c2cn(C)c(=O)c(C)c2C)cc(OC)c1CN1CCN(C(=O)c2ccc(C3CCCN3C(=O)/C(C#N)=C/C(C)(C)C)cc2)CC1 (mixture of isomers) [Compound B55]",
    "DC50": "25 to 1000 nM"
  },
  {
    "COMPOUND": "COc1cc(-c2cn(C)c(=O)c(C)c2C)cc(OC)c1CN1CCN(Cc2cccc3c2CCN(C(=O)/C(C#N)=C/C(C)(C)C)C3C)C2CC21 (mixture of isomers) [Compound B148]",
    "DC50": "1.25 to 10 nM"
  }
]

I am curious: what DC50 value has been reported for COc1cc(-c2cn(C)c(=O)c(C)c2C)cc(OC)c1CN1CCN(Cc2cccc3c2CCN(C(=O)/C(C#N)=C/C2(C)CCCCC2)C3C)C2(CC2)C1 (mixture of isomers) [Compound B143] ?
10 to 25 nM

I am curious: what DC50 value has been reported for CCC1c2cccc(CN3CCN(Cc4c(OC)cc(-c5cn(C)c(=O)c(C)c5C)cc4OC)CC34CC4)c2CCN1C(=O)/C(C#N)=C/C(C)(C)C (mixture of isomers) [Compound C15] ?
< 1.25 nM

FYI, the data here is from patent US20260092061A1.
